target: UniProtKB P45452; assay: in vitro MMP inhibition assay (fluorogenic substrate, protocol of Huang et al.); type: biochemical
endpoint-label: IC50

Which IC50 is listed for NCCCC[C@H](NCc1cn(CCOCCOCCOCCN2CCN(C3(c4ccc(Oc5ccccc5)cc4)C(=O)NC(=O)NC3=O)CC2)nn1)C(=O)O [compound 17] ? 58 nM

---

target: MMP-2 (Homo sapiens, UniProt P08253); assay: in vitro MMP inhibition assay (fluorogenic substrate, protocol of Huang et al.); assay type: biochemical
Sequence (P08253 110-660, species assumed): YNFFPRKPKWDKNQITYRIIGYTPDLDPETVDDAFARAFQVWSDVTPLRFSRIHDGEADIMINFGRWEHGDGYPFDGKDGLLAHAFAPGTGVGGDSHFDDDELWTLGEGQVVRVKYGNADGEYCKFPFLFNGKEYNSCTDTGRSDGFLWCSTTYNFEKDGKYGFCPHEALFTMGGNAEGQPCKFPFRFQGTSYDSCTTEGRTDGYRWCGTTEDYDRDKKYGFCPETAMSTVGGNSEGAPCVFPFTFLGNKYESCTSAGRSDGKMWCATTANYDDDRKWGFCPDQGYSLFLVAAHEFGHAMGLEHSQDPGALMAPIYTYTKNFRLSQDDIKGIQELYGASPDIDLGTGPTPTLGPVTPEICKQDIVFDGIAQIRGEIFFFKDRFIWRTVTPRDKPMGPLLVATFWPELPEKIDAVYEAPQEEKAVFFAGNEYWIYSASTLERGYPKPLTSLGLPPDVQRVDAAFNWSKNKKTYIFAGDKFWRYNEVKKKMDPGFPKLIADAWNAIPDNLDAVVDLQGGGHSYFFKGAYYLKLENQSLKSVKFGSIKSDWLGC
endpoint-label: pIC50
Please treat pIC50 as minus the base-10 logarithm of the molar concentration.

Quick check: pIC50 of NCCCC[C@H](NCc1cn(CCOCCOCCOCCN2CCN(C3(c4ccc(Oc5ccccc5)cc4)C(=O)NC(=O)NC3=O)CC2)nn1)C(=O)O ? 8.15

---

biological target: MMP-13 (Homo sapiens, UniProt P45452); assay: in vitro MMP inhibition assay (fluorogenic substrate, protocol of Huang et al.); assay type: biochemical; conditions: read-out: IC50 MMP-13; activated MMP 2 nM, 37 °C, 30 min preincubation, non-radioactive compound
endpoint-label: pIC50
// field semantics: pIC50 = negative decimal log of concentration (mol/L)

Can you share its pIC50? I mean this compound: N[C@@H](Cc1cn(CCOCCOCCOCCN2CCN(C3(c4ccc(Oc5ccccc5)cc4)C(=O)NC(=O)NC3=O)CC2)nn1)C(=O)O 7.57

---

target: MMP-2 (Homo sapiens, UniProt P08253); experiment: in vitro MMP inhibition assay (fluorogenic substrate, protocol of Huang et al.); assay type: biochemical; details: read-out: IC50 MMP-2; activated MMP 2 nM, 37 °C, 30 min preincubation, non-radioactive compound
endpoint-label: pIC50
Keep it numeric: pIC50 is minus log10 of the concentration in mol/L.

What does the data say about its pIC50? Entry: N[C@@H](Cc1cn(CCOCCOCCOCCN2CCN(C3(c4ccc(Oc5ccccc5)cc4)C(=O)NC(=O)NC3=O)CC2)nn1)C(=O)O 9.22

---

biological target: MMP-9 (Homo sapiens, UniProt P14780); experiment: in vitro MMP inhibition assay (fluorogenic substrate, protocol of Huang et al.); type: biochemical; conditions: activated MMP 2 nM, 37 °C, 30 min preincubation, non-radioactive compound; read-out: IC50 MMP-9
Sequence (P14780 107-707 limits assumed, species assumed): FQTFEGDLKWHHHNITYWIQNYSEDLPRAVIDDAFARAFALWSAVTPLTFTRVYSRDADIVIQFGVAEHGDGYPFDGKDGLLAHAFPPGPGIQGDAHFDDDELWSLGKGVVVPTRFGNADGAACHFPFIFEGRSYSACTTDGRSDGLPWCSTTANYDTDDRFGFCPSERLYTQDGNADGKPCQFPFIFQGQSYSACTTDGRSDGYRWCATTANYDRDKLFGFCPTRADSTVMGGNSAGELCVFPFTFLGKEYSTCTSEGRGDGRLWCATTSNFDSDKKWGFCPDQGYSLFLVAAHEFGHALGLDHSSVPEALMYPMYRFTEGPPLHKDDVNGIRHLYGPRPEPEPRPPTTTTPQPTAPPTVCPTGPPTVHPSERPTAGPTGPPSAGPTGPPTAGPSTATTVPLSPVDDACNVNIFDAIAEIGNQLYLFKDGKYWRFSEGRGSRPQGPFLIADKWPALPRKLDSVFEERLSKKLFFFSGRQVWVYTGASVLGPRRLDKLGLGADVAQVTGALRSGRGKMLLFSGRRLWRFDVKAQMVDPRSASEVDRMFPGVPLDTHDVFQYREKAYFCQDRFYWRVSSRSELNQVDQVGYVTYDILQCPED
# IC50 annotations
Entry rule: numbers only, all in nM.

molecule: N[C@@H](Cc1cn(CCOCCOCCOCCN2CCN(C3(c4ccc(Oc5ccccc5)cc4)C(=O)NC(=O)NC3=O)CC2)nn1)C(=O)[O][Re](=[C]=O)(=[C]=O)=[C]=O [MEA39]
IC50 (nM): 0.9

Entry NCCCC[C@H](NCc1cn(CCOCCOCCOCCN2CCN(C3(c4ccc(Oc5ccccc5)cc4)C(=O)NC(=O)NC3=O)CC2)nn1)C(=O)[O-].O=[C]=[Re+](=[C]=O)=[C]=O [MEA61] : reported IC50 = ? 8

---

molecular target: MMP-9 (Homo sapiens); experiment: in vitro MMP inhibition assay (fluorogenic substrate, protocol of Huang et al.); type: biochemical; details: read-out: IC50 MMP-9; activated MMP 2 nM, 37 °C, 30 min preincubation, non-radioactive compound
endpoint-label: pIC50
Here pIC50 is given on a logarithmic scale as minus log10 of the concentration in mol/L.

Given N[C@@H](Cc1cn(CCOCCOCCOCCN2CCN(C3(c4ccc(Oc5ccccc5)cc4)C(=O)NC(=O)NC3=O)CC2)nn1)C(=O)O , state its recorded pIC50. 8.85

---

molecular target: MMP-13 (Homo sapiens); assay: in vitro MMP inhibition assay (fluorogenic substrate, protocol of Huang et al.); type: biochemical; conditions: activated MMP 2 nM, 37 °C, 30 min preincubation, non-radioactive compound; read-out: IC50 MMP-13
pIC50: recorded values
Scale: negative log10 of molar concentration, which is what pIC50 denotes.

structure-string: N[C@@H](Cc1cn(CCOCCOCCOCCN2CCN(C3(c4ccc(Oc5ccccc5)cc4)C(=O)NC(=O)NC3=O)CC2)nn1)C(=O)[O][Re](=[C]=O)(=[C]=O)=[C]=O
system-tested: MMP-13 (Homo sapiens)
pIC50: 8.70

Alright, here's another compound for you.
Entry NCCCC[C@H](NCc1cn(CCOCCOCCOCCN2CCN(C3(c4ccc(Oc5ccccc5)cc4)C(=O)NC(=O)NC3=O)CC2)nn1)C(=O)[O-].O=[C]=[Re+](=[C]=O)=[C]=O has what pIC50? 7.59
